- System name: T1, 4H918-bH
- T1 chain: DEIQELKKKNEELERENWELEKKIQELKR
- Assay notes: two-hybrid library CCNG1;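 also: natural log of median RNA to DNA barcode read ratio; higher means stronger binding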
Measurement type: interaction score
// keep it numeric: no unit symbol after the value

For the binder shown here, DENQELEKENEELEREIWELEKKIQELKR [4H1158-bH] , give the reported interaction score.
-0.233

Another binder to look at: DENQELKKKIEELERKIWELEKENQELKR [4H1828-bH]
0.157

Another binder to look at: DEIQELKKENEELERKIWELKKENQELER [4H683-bH]
-1.01

Another binder to look at: DEIQELEKKNEELKREIWELKKEIQELER [4H457-bH]
-0.832

Another binder to look at: DEIQELEKKNEELKREIWELKKKIQELKR [4H462-bH]
0.264

Another binder to look at: DKNQELEKEIEELKRKNWELEKKIQELER [4H3189-bH]
-0.173

Another binder to look at: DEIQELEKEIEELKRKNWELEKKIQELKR [4H118-bH]
0.604
